test: Probe fluorescence ratio response to linolenic acid relative to ADIFAB2; type: binding; conditions: response relative to ADIFAB2
MEASURE NAME: DR/DR LNA
No unit in the answer, only the number.

Consider the reported DR/DR LNA for these molecules:
{"columns": ["MOLECULE", "DR/DR LNA"],
 "data": [
  ["68A, 72A (protein, listed as Rattus norvegicus, PEPTIDE (1)...(131) wild-type rat intestinal fatty acid binding protein) AFDGTWKVDRNENYEKFMEKMGINVVKRKLGAHDNLKLTITQEGNKFTVKESSNFRNIDVVFELGVDAAYSAADGTELTGTWTMEGNKLVGKFKRVDNGKELIAVREISGNELIQTYTYEGVEAKRIFKKE", 0.19],
  ["106H, 72A (protein, listed as Rattus norvegicus, PEPTIDE (1)...(131) wild-type rat intestinal fatty acid binding protein) AFDGTWKVDRNENYEKFMEKMGINVVKRKLGAHDNLKLTITQEGNKFTVKESSNFRNIDVVFELGVDFAYSAADGTELTGTWTMEGNKLVGKFKRVDNGKELIAVHEISGNELIQTYTYEGVEAKRIFKKE", 0.633]
]}

Looking up 38G1, 72A (protein, listed as Rattus norvegicus, PEPTIDE (1)...(131) wild-type rat intestinal fatty acid binding protein) AFDGTWKVDRNENYEKFMEKMGINVVKRKLGAHDNLKGTITQEGNKFTVKESSNFRNIDVVFELGVDFAYSAADGTELTGTWTMEGNKLVGKFKRVDNGKELIAVREISGNELIQTYTYEGVEAKRIFKKE , I see its DR/DR LNA listed as 1.07

Reference source: patent US20060257938A1
